Values compiled from paper PMC10397247.

tested_system: T1, 4H2702-bN
T1 chain: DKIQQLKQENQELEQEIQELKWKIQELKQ
method: two-hybrid library CCNG1;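 further: natural log of median RNA to DNA barcode read ratio; higher means stronger binding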
Listed binders paired with reported interaction score
measure_name: interaction score

> print(dat)
                                     binder  meas.value
1  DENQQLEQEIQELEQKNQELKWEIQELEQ [4H1081-bN]      0.0755
2  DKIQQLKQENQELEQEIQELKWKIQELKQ [4H2702-bN]        1.44
3  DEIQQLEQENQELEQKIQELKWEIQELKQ [4H170-bN]        1.32
4  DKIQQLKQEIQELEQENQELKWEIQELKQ [4H2586-bN]      -0.448
